- assayed_system: EGFR(Dell9_T790M_C797S) (aa 669-1210, in house) (Homo sapiens, UniProt P00533, T790M/C797S, form not given)
- Sequence (P00533 with tags, fused parts or gaps DEL746-750/T790M/C797S, form open): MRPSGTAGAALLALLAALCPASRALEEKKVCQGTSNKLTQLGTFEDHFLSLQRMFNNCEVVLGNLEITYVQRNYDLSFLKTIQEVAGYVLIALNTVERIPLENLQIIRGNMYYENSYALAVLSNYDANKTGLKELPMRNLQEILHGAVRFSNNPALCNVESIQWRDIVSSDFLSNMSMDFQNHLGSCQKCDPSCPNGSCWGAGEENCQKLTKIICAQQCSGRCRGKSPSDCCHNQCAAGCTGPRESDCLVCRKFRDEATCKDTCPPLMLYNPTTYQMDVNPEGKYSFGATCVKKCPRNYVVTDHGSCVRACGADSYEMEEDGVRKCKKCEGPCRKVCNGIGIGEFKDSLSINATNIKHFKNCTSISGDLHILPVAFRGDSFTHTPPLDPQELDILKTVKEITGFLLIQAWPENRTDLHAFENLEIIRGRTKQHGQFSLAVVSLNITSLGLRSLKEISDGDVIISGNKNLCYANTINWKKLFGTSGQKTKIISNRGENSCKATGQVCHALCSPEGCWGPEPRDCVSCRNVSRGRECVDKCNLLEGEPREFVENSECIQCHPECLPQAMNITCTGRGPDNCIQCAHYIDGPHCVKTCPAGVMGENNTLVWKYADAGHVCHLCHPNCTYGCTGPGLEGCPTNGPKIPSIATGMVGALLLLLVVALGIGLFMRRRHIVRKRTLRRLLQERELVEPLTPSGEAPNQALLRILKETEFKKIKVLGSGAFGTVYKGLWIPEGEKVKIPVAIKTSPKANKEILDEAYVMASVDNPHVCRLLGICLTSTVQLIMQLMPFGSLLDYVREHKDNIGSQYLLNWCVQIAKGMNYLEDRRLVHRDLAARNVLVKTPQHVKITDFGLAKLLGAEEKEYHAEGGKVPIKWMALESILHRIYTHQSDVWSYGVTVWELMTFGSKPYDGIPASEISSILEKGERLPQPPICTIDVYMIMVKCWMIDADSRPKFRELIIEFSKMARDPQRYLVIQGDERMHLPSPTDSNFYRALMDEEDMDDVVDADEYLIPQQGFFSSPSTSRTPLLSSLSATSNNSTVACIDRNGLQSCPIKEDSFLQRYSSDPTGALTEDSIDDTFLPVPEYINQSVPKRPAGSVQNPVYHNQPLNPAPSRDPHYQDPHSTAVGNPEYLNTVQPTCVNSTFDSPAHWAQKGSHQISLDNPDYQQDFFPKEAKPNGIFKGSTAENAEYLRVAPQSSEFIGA
- test_method_notes: Biochemical EGFR inhibition assay (TR-FRET), Del19/T790M/C797S mutant
- condition_notes: ATP at Km, 15 min pre-incubation, 60 min reaction; read-out: Del_TM_CS (Km ATP) IC50
reported_property: IC50 (pM)

>  <compound>
COc1cc(C2CCN(CCN(C)C)CC2)c(C)cc1Nc1nc(Nc2cccc3c2N(S(C)(=O)=O)CC3)c2cc[nH]c2n1 [Example 109]

>  <IC50 (pM)>
10000

$$$$
>  <compound>
CN1CCN(C2CCN(c3c(F)cc(Nc4ncc(Br)c(Nc5cccc6c5N(S(C)(=O)=O)CC6)n4)c4c3CCO4)CC2)CC1 [Example 60]

>  <IC50 (pM)>
350

$$$$

1. COc1cc(N2CCC(N3CCN(C)CC3)CC2)ccc1Nc1ncc(Cl)c(Nc2cccc3c2N(S(=O)(=O)CF)CC3)n1 [Example 12]
2. CN(C)C1CCN(c2ccc(Nc3ncc(Br)c(Nc4cccc5c4N(S(C)(=O)=O)CC5)n3)c3c2CCO3)CC1 [Example 48]
Task for the reader: decide whether 1 or 2 has the larger IC50. To answer, give the label that identifies your chosen option.
1
(1: 440 pM, 2: 180 pM)
